System: Bacillus subtilis
Experiment: Antibacterial activity against Bacillus subtilis IFO 3007 after 24 hrs by two fold dilution method
Assay type: functional
Details: IFO 3007, 24 h
assay endpoint: MIC
Put your answer as a value accompanied by its unit after it.

>  <structure>
Oc1ccccc1/C=N/n1c(C23CC4CC(CC(C4)C2)C3)nn(CN2CCN(c3ccccc3)CC2)c1=S

>  <experimental value>
4 µg/mL

$$$$
>  <structure>
Oc1ccc(/C=N/n2c(C34CC5CC(CC(C5)C3)C4)nn(CN3CCN(c4ccccc4)CC3)c2=S)cc1

>  <experimental value>
4 µg/mL

$$$$
>  <structure>
FC(F)(F)c1ccccc1NCn1nc(C23CC4CC(CC(C4)C2)C3)n(-c2ccc(Cl)cc2)c1=S

>  <experimental value>
16 µg/mL

$$$$
>  <structure>
FC(F)(F)c1ccc(NCn2nc(C34CC5CC(CC(C5)C3)C4)n(-c3ccc(Cl)cc3)c2=S)cc1

>  <experimental value>
8 µg/mL

$$$$
>  <structure>
Oc1ccccc1/C=N/n1c(C23CC4CC(CC(C4)C2)C3)nn(CN2CCN(Cc3ccccc3)CC2)c1=S

>  <experimental value>
2 µg/mL

$$$$

[ask] Kindly indicate its recorded MIC. Item: `CCN1CCN(Cn2nc(C34CC5CC(CC(C5)C3)C4)n(/N=C/c3ccc(O)cc3)c2=S)CC1`
[reply] 1 µg/mL

[ask] Kindly indicate its recorded MIC. Item: `COc1ccccc1N1CCN(Cn2nc(C34CC5CC(CC(C5)C3)C4)n(C)c2=S)CC1`
[reply] 4 µg/mL

[ask] Kindly indicate its recorded MIC. Item: `Fc1cccc(F)c1NCn1nc(C23CC4CC(CC(C4)C2)C3)n(-c2ccc(Cl)cc2)c1=S`
[reply] 8 µg/mL

[ask] Kindly indicate its recorded MIC. Item: `COc1ccccc1N1CCN(Cn2nc(C34CC5CC(CC(C5)C3)C4)n(/N=C/c3ccccc3O)c2=S)CC1`
[reply] 0.5 µg/mL

[ask] Kindly indicate its recorded MIC. Item: `CCOC(=O)N1CCN(Cn2nc(C34CC5CC(CC(C5)C3)C4)n(/N=C/c3ccccc3O)c2=S)CC1`
[reply] 4 µg/mL
